Source: the supplement of paper PMC9233669

- Test system: biotinyl-Val-oxazolone
- procedure.summary: self-aminoacylation, catalytic enhancement (BVO) (fold over background); higher = more active; k-Seq, kA / k0A0; sequences stand for … in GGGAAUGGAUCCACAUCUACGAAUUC…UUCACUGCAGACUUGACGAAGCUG
This sample holds only a part of the variants without activity.
// label = class 1 if self-aminoacylation is not less than 3, otherwise class 0

{"residue.codes": "AUUACCCGGGUCACCGAGUGA [Fam2.1 aminoacylation ribozyme variant]", "group.label": "class 1"}
{"residue.codes": "CUACUUCAAUCACUCGGUCUG [Fam1A.1 aminoacylation ribozyme variant]", "group.label": "class 0"}
{"residue.codes": "UUACCUCAAACAAUCGGUCUG [Fam1A.1 aminoacylation ribozyme variant]", "group.label": "class 0"}
{"residue.codes": "AAGUUUGCUAUUAGUUGCAAG [Fam3.1 aminoacylation ribozyme variant]", "group.label": "class 0"}
{"residue.codes": "AUUCCCCUAGGUCAUCGGGAG [Fam2.2 aminoacylation ribozyme variant]", "group.label": "class 1"}
{"residue.codes": "AAGUUUGCUAAUAGUUGCAAC [Fam3.1 aminoacylation ribozyme variant]", "group.label": "class 0"}
{"residue.codes": "AUGCACCUAGGUCAUCGGGAG [Fam2.2 aminoacylation ribozyme variant]", "group.label": "class 0"}
{"residue.codes": "AUUACCCUCGUCUUCGAGUGA [Fam2.1 aminoacylation ribozyme variant]", "group.label": "class 1"}

---

Property: self-aminoacylation; scope: individual sequences
- System: biotinyl-Val-oxazolone
- procedure.summary: self-aminoacylation, catalytic enhancement (BVO) (fold over background); higher = more active; k-Seq, kA / k0A0; sequences stand for … in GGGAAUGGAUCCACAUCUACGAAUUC…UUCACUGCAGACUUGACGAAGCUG
This sample holds only a part of the variants without activity.

{"residue.codes": "CGACACUUCAAGGAAUCGGUC [Fam1B.1 aminoacylation ribozyme variant]", "self-aminoacylation": 1.73}
{"residue.codes": "CCACACUUCACGCAAUCUGUC [Fam1B.1 aminoacylation ribozyme variant]", "self-aminoacylation": 0.678}
{"residue.codes": "AUUACCUUGGUCAUCGAGUGA [Fam2.1 aminoacylation ribozyme variant]", "self-aminoacylation": 3.88}
{"residue.codes": "UUUCACCUAGCUCAUCGGGUG [Fam2.2 aminoacylation ribozyme variant]", "self-aminoacylation": 2.73}
{"residue.codes": "CCACACCUCAAGCAAUCGGUC [Fam1B.1 aminoacylation ribozyme variant]", "self-aminoacylation": 1.15}
{"residue.codes": "AAGUUUGCUAAUAGUCGCAAG [Fam3.1 aminoacylation ribozyme variant]", "self-aminoacylation": 1.15}
{"residue.codes": "AUUCACGUACGUCAUCGGGUG [Fam2.2 aminoacylation ribozyme variant]", "self-aminoacylation": 6.9}
{"residue.codes": "AUUACCCUGGUCAUUGAGCGA [Fam2.1 aminoacylation ribozyme variant]", "self-aminoacylation": 1.41}
{"residue.codes": "AUUCAUCUAGGUCAGCGGGUG [Fam2.2 aminoacylation ribozyme variant]", "self-aminoacylation": 3.23}

---

- Tested on: biotinyl-Trp-oxazolone
- procedure.summary: self-aminoacylation, catalytic enhancement (BWO) (fold over background); higher = more active; k-Seq, kA / k0A0; sequences stand for … in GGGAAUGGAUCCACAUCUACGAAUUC…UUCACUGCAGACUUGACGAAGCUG
Fewer inactive variants are shown than the library holds.

{"residue.codes": "CUACUUCUAACAAUCGGUCGG [Fam1A.1 aminoacylation ribozyme variant]", "self-aminoacylation": 0.653}
{"residue.codes": "CUACUCCAAAAAAUCGGUCUG [Fam1A.1 aminoacylation ribozyme variant]", "self-aminoacylation": 1.06}
{"residue.codes": "AAUCACAUAGGUCAUCGGGUG [Fam2.2 aminoacylation ribozyme variant]", "self-aminoacylation": 6.45}
{"residue.codes": "CUUCACCUAGUUCAUCGGGUG [Fam2.2 aminoacylation ribozyme variant]", "self-aminoacylation": 2.53}
{"residue.codes": "AUUCGCCUGGGUCAUCGGGUG [Fam2.2 aminoacylation ribozyme variant]", "self-aminoacylation": 14.1}
{"residue.codes": "AUUGCCCUGGUCAGCGAGUGA [Fam2.1 aminoacylation ribozyme variant]", "self-aminoacylation": 6.28}
{"residue.codes": "AAGUUUGGUAAUAGUCGGAAG [Fam3.1 aminoacylation ribozyme variant]", "self-aminoacylation": 1.08}
{"residue.codes": "AUUACCCUGGUCCUCGAGUGC [Fam2.1 aminoacylation ribozyme variant]", "self-aminoacylation": 1.31}
{"residue.codes": "AUUCACCAAGGUCGUCGGGUG [Fam2.2 aminoacylation ribozyme variant]", "self-aminoacylation": 2.29}
